# measurementProtocol: self-splicing fitness, log relative to wild type (ln ratio); higher = more splicing; Tetrahymena group I intron in knt gene, E. coli kanamycin selection, DiMSum; sequences stand for … in CUCUCU…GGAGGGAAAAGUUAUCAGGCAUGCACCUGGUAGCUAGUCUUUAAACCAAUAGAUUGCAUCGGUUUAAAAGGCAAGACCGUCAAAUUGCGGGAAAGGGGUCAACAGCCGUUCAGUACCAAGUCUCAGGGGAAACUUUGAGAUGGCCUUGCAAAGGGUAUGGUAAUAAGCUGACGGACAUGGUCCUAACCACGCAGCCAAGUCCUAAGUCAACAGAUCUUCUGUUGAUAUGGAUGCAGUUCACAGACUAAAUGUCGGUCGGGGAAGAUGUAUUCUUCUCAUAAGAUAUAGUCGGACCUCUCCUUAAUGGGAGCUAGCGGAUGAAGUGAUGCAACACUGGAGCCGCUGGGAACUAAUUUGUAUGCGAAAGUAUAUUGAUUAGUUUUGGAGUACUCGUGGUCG;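 also: selection with 25 µg/mL kanamycin versus none on LB agar overnight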
# conditions: 30 °C
measuredParameter: self-splicing fitness (ln)
// no unit, no text: just the number

Worked examples, 3 sequences total:
GACCAGCAAUAUUACGACCG    -0.572
CUCAAGCAAUAUUACGCGGA    -3.12
AUAAAGCAAUAUUACGGGAU    -0.81

Record summary for GCCGAGCAAUAUUACGUUUU : reported self-splicing fitness (ln) = -3.18

Record summary for GCGCAGCAAUAUUACGUAGU : reported self-splicing fitness (ln) = -0.438

Record summary for GUUUAGCAAUAUUACGUUGA : reported self-splicing fitness (ln) = -3.52

Record summary for CUGUAGCAAUAUUACGUAGU : reported self-splicing fitness (ln) = -4.78

* * *

# measurementProtocol: self-splicing fitness, log relative to wild type (ln ratio); higher = more splicing; Tetrahymena group I intron in knt gene, E. coli kanamycin selection, DiMSum; sequences stand for … in CUCUCU…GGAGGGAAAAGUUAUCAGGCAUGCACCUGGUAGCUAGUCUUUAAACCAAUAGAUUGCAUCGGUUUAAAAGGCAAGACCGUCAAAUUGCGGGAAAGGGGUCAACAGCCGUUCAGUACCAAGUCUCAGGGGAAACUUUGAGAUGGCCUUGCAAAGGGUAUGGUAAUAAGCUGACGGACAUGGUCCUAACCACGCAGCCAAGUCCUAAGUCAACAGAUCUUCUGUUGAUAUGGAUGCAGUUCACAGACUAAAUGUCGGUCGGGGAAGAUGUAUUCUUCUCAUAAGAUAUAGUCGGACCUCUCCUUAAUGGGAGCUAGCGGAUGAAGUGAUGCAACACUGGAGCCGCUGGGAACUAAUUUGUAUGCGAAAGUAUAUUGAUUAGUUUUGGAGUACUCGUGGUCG
# conditions: 37 °C
measuredParameter: self-splicing fitness (ln)

Worked examples, 3 sequences total:
AUUGAGCAAUAUUACGUCAA    -2.6
ACCGAGCAAUAUUACGCCCA    -3.03
AAACAGCAAUAUUACGGGUC    -3.08

Record summary for UAUCAGCAAUAUUACGUAUU : reported self-splicing fitness (ln) = -0.815

Record summary for AUGUAGCAAUAUUACGAUGA : reported self-splicing fitness (ln) = -1.66

Record summary for AUUGAGCAAUAUUACGACGU : reported self-splicing fitness (ln) = -0.115

Record summary for CGAAAGCAAUAUUACGAACU : reported self-splicing fitness (ln) = 0.0371

Record summary for UUUUAGCAAUAUUACGAUGU : reported self-splicing fitness (ln) = -1.6
